- target-or-system: MAGI1 PDZ2 (UniProt Q96QZ7 471-554)
- Sequence (Q96QZ7 471-554): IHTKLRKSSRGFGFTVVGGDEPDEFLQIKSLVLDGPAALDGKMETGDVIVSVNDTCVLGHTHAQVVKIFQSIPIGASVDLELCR
- assay-remarks: fluorescence polarisation
endpoint-label: IC50

// Input: SSRTVQDTRL [_(SSRT)CFTR peptide] . Output its IC50 only. > 1000 µM

Values compiled from paper PMC9881875.
